biological target: HIV-1 integrase (Human immunodeficiency virus type 1 group M subtype B); experiment: HIV-1 integrase inhibition assay (procedure of Burke et al.; radiolabeled duplex substrate, U5 end of HIV LTR); type: biochemical; conditions: Table 1; 4-hydroxy derivative of the root amino acid, formula Ic; read-out: Anti-integrase activity (IC50) 4-hydroxy derivative
RECORDED_METRIC: pIC50
The quantity pIC50 is defined as the negative base-10 logarithm of the molar concentration.

Use the examples below as a reference point.
[[record]]
chemical_structure = "O=C(CC[C@H](NC(=O)c1ccc(O)cc1)C(=O)NCCc1ccc(O)c(O)c1)NCCc1ccc(O)c(O)c1"
system_name = "HIV-1 integrase (Human immunodeficiency virus type 1 group M subtype B)"
recorded_metric = "pIC50"
numeric_readout = 4.19

[[record]]
chemical_structure = "C[C@H](NC(=O)c1ccc(O)cc1)C(=O)NCCc1ccc(O)c(O)c1"
system_name = "HIV-1 integrase (Human immunodeficiency virus type 1 group M subtype B)"
recorded_metric = "pIC50"
numeric_readout = 3.80


Now consider a different molecule.
What value of pIC50 has been recorded for this entry: O=C(N[C@@H](Cc1ccc(O)cc1)C(=O)NCCc1ccc(O)c(O)c1)c1ccc(O)cc1
4.06
